- Protocol Details: Antioxidant activity assessed as trolox equivalent of ORAC radical scavenging activity at 10 uM measured for 2 hrs by AAPH based fluorescence microplate reader
- Assay type: functional
Measured Endpoint: Activity

>>> endpoint_value("COc1ccc(N/N=C(/C(C)=O)C(=O)O)cc1")
3.67
>>> endpoint_value("COc1ccc(N/N=C(\\C(=O)O)C(=O)C(F)(F)F)cc1")
3.6
>>> endpoint_value("Cc1ccc(N/N=C(\\C(=O)O)C(=O)C(F)(F)F)cc1")
3.03
>>> endpoint_value("Cc1ccc(N/N=C(\\C(=O)O)C(=O)C(F)(F)C(F)(F)C(F)(F)C(F)(F)F)cc1")
3.2
>>> endpoint_value("COc1ccc(N/N=C(\\C(=O)O)C(=O)C(F)(F)C(F)(F)C(F)(F)C(F)(F)F)cc1")
3.87
>>> endpoint_value("CCOC(=O)c1ccc(N/N=C(/C(C)=O)C(=O)O)cc1")
0.47
>>> endpoint_value("CCOC(=O)c1ccccc1N/N=C(\\C(=O)O)C(=O)C(F)(F)C(F)(F)C(F)(F)C(F)(F)F")
1.7
>>> endpoint_value("O=C(O)/C(=N\\Nc1ccccc1)C(=O)C(F)(F)F")
3.7
>>> endpoint_value("COc1ccc(N/N=C(\\C(=O)O)C(=O)C(F)(F)C(F)F)cc1")
3.73
>>> endpoint_value("Cc1ccc(N/N=C(\\C(=O)O)C(=O)C(F)F)cc1")
3.13
>>> endpoint_value("Cc1ccc(N/N=C(\\C(=O)O)C(=O)C(F)(F)C(F)(F)F)cc1")
3.7
>>> endpoint_value("CC(=O)/C(=N/Nc1ccc(C(=O)O)cc1)C(=O)O")
2.2
>>> endpoint_value("CC(=O)/C(=N/Nc1ccc(C)cc1)C(=O)O")
3.37
>>> endpoint_value("COc1ccc(N/N=C(\\C(=O)O)C(=O)C(F)(F)C(F)(F)C(F)(F)F)cc1")
3.67
>>> endpoint_value("CC(=O)/C(=N/Nc1ccccc1)C(=O)O")
3.43
>>> endpoint_value("Cc1ccc(N/N=C(\\C(=O)O)C(=O)C(F)(F)C(F)(F)C(F)(F)F)cc1")
3.27
>>> endpoint_value("Cc1c(C)c2c(c(C)c1O)CCC(C)(C(=O)O)O2 (configuration not stated)")
1

###

- Subject Of Test: Liver carboxylesterase (Sus scrofa)
- Protocol Details: Reversible mixed type inhibition of porcine liver carboxylesterase using 4-nitrophenylacetate as substrate assessed as inhibition constant of competitive component by Lineweaver-Burk plot analysis
pKi: −log10 of the molar value.
Measured Endpoint: pKi

>>> endpoint_value("Cc1ccc(N/N=C(\\C(=O)O)C(=O)C(F)(F)C(F)(F)C(F)(F)C(F)(F)F)cc1")
7.74

###

- Subject Of Test: Liver carboxylesterase (Sus scrofa)
- Protocol Details: Reversible mixed type inhibition of porcine liver carboxylesterase using 4-nitrophenylacetate as substrate assessed as inhibition constant of non-competitive component by Lineweaver-Burk plot analysis
Measured Endpoint: Ki (nM)

>>> endpoint_value("Cc1ccc(N/N=C(\\C(=O)O)C(=O)C(F)(F)C(F)(F)C(F)(F)C(F)(F)F)cc1")
27

###

- Subject Of Test: UniProt P22303
- Sequence (P22303 whole entry): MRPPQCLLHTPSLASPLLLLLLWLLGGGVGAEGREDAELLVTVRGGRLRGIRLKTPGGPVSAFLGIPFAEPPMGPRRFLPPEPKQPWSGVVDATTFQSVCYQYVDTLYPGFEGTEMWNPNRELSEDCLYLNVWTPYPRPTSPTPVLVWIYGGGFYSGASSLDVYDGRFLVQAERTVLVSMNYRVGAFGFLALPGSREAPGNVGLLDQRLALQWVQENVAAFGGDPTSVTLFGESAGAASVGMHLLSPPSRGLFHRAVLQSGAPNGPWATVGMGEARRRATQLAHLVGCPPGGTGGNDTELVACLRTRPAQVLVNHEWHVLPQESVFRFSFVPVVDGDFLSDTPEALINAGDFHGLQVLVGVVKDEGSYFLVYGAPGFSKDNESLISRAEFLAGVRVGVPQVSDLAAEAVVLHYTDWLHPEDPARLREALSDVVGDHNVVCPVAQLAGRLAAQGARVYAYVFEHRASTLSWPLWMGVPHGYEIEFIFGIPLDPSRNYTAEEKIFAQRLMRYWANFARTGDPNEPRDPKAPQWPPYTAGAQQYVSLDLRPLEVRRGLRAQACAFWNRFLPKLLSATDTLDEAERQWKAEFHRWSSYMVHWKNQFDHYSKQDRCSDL
- Protocol Details: Inhibition of human erythrocyte acetylcholinesterase using acetylthiocholine as substrate at 20 uM by Ellman's method relative to control
The source made the active and inactive calls. The calls are words filed in the database; no cut-off is given here.
Measured Endpoint: inhibition

>>> endpoint_value("COc1ccc(N/N=C(\\C(=O)O)C(=O)C(F)(F)C(F)F)cc1")
"4.2%"
>>> endpoint_value("O=C(O)/C(=N\\Nc1ccccc1)C(=O)C(F)(F)F")
"16.5%"
>>> endpoint_value("Cc1ccc(N/N=C(\\C(=O)O)C(=O)C(F)F)cc1")
"10.2%"
>>> endpoint_value("Cc1ccc(N/N=C(\\C(=O)O)C(=O)C(F)(F)C(F)(F)C(F)(F)F)cc1")
"14.7%"
>>> endpoint_value("Cc1ccc(N/N=C(\\C(=O)O)C(=O)C(F)(F)C(F)F)cc1")
"inactive"
>>> endpoint_value("O=[N+]([O-])c1ccc(OP(=O)(O)Oc2ccc([N+](=O)[O-])cc2)cc1")
"inactive"
>>> endpoint_value("CCOC(=O)c1ccccc1N/N=C(\\C(=O)O)C(=O)C(F)(F)C(F)(F)C(F)(F)C(F)(F)F")
"24%"
>>> endpoint_value("Cc1ccc(N/N=C(\\C(=O)O)C(=O)C(F)(F)C(F)(F)F)cc1")
"10.2%"
>>> endpoint_value("COc1ccc(N/N=C(\\C(=O)O)C(=O)C(F)(F)C(F)(F)C(F)(F)C(F)(F)F)cc1")
"4.4%"
>>> endpoint_value("COc1ccc(N/N=C(\\C(=O)O)C(=O)C(F)(F)C(F)(F)C(F)(F)F)cc1")
"19.4%"
>>> endpoint_value("CC(=O)/C(=N/Nc1ccccc1)C(=O)O")
"4.7%"
>>> endpoint_value("CCOC(=O)c1ccc(N/N=C(/C(C)=O)C(=O)O)cc1")
"inactive"
>>> endpoint_value("CC(=O)/C(=N/Nc1ccc(C(=O)O)cc1)C(=O)O")
"5.8%"
>>> endpoint_value("Cc1ccc(N/N=C(\\C(=O)O)C(=O)C(F)(F)C(F)(F)C(F)(F)C(F)(F)F)cc1")
"9.8%"

###

- Subject Of Test: Liver carboxylesterase (Sus scrofa, UniProt Q29550)
- Sequence (Q29550 whole entry): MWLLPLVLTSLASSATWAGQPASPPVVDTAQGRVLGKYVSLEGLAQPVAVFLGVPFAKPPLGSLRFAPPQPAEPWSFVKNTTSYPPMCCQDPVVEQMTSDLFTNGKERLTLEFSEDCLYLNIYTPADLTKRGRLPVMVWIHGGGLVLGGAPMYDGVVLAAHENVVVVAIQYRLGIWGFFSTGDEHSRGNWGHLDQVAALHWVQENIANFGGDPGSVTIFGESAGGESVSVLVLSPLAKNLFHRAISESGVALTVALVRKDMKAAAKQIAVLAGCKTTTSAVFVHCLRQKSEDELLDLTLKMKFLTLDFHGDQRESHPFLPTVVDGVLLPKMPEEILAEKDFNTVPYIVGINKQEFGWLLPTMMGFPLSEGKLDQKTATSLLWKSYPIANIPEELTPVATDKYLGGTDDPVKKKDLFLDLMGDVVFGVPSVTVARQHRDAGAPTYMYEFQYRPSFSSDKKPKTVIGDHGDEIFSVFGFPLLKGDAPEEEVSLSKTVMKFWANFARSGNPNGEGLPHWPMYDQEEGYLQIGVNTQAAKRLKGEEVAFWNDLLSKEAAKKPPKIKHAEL
pIC50: −log10 of the molar value.
# pIC50 listing for each entry below
Measured Endpoint: pIC50

>>> endpoint_value("CCOC(=O)c1ccccc1N/N=C(\\C(=O)O)C(=O)C(F)(F)C(F)(F)C(F)(F)C(F)(F)F")
6.85
>>> endpoint_value("COc1ccc(N/N=C(\\C(=O)O)C(=O)C(F)(F)C(F)(F)C(F)(F)F)cc1")
7.02
>>> endpoint_value("Cc1ccc(N/N=C(\\C(=O)O)C(=O)C(F)(F)C(F)(F)F)cc1")
6.91
